Origin of values: patent US20090298167A1

# Measured On: human IL-21R expressed on cells (human, UniProt Q9HBE5 20-538)
# Sequence (Q9HBE5 20-538 limits assumed): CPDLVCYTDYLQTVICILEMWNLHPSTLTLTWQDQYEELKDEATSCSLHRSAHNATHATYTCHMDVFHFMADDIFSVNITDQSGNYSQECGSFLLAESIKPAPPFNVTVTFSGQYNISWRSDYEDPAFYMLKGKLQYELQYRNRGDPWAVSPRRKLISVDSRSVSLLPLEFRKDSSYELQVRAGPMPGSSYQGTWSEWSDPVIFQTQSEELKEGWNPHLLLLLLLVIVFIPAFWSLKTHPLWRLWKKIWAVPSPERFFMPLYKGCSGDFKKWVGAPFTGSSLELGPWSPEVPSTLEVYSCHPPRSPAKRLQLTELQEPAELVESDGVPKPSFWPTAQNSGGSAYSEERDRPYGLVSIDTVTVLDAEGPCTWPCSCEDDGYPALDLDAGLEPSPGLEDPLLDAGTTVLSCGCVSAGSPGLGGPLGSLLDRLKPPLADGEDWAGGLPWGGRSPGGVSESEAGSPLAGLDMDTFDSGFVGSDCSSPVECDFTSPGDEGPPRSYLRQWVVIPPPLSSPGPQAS
# Assay Method Text: cell-based or functional assay
Readout: Neutralization of T cell Proliferation IC50 (nM), human primary CD4+ T cells

| Binder | Experimental Value |
| --- | --- |
| parental 18A5 antibody (antibody, V domains shown) VH: QVQLQESGPGLVKTSETLSLTCAVSGYSISSGYYWGWIRQPPGKGLEWIGSISHTGNTYYNPPLKSRVTISVDTSKNQFSLKLSSVTAADTAVYYCARGGGISRPEYWGKGTLVTVSS VL: SSELTQDPPVSVALGQTVTLTCQGDSLRTYYASWYQQKSGQAPILLLYGKHKRPSGIPDRFSGSTSGDTASLTITGAQAEDEADYYCNSRDSSGNPHVLFGGGTQLTVL | 1.42 |
| AbU (antibody, human IgG1, V domains shown, Human IgG1 triple-mutant (L234A, L235A, G237A); Framework limits derived; also called VHP/VL25; VHPTM/VL25) VH: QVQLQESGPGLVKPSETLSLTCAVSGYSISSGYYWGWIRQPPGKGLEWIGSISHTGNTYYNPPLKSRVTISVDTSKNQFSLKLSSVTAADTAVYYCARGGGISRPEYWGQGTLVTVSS VL: SSELTQDPAVSVALGQTVRITCQGDSLRTYYASWYQQKPGQAPVLVIYGKHKRPSGIPDRFSGSSSGNTASLTITGAQAEDEADYYCTTRSNKGNPHVLFGGGTQLTVL | 0.03 |
| AbQ (antibody, human IgG1, V domains shown, Purified form: human IgG1 double-mutant (L234A, G237A); Framework limits derived; also called VH3/VL2; VH3DM/VL2) VH: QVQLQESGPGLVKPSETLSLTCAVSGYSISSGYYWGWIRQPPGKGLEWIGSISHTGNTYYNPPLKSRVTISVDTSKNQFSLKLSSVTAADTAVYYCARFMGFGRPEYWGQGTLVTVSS VL: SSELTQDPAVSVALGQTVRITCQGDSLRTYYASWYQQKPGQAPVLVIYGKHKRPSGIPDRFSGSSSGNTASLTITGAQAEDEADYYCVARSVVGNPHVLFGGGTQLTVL | 0.08 |
